The following compounds are listed with their measured IC50 values.
- tgt: GABA-A receptor; anion channel
- protocolText: In vitro binding affinity at benzodiazepine receptor of rat cerebral cortical membranes by [3H]diazepam displacement.

Example compounds with recorded IC50:
smilesdata=Nc1cc2c(cn1)[nH]c1ccccc12 measuredvalue="> 25000 nM"
smilesdata=c1ccc(CNc2cc3c(cn2)[nH]c2ccccc23)cc1 measuredvalue="> 1280 nM"

Value of IC50 reported for the compound c1ccc(COc2cc3c4ccccc4nc-3c[nH]2)cc1 is > 1000 nM

These entries and their values trace back to ChEMBL document CHEMBL1125333.
